All figures here come from PubChem BioAssay (NCI).

Could you please report measured growth inhibition for the items listed next?
ASSAY_REMARKS: NCI Yeast Anticancer Drug Screen. Data for the sgs1 mgt1 strain (AID 161);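 note: 0% = growth of cultures given vehicle only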
REPORTED_CONDITIONS: S. cerevisiae sgs1 mgt1 strain, at 50.0 µM, stronger effect = higher value
Compounds without any hit were thinned out: in the full panel of roughly 79,000, 15% have a hit.
Respond with the bare value in %.

Param item = `O=c1[nH]cnc2c1cnn2Cc1ccccc1` ; retrieve measured growth inhibition. 1.2

Param item = `Cc1cc(NCCN(C)C)nc(Nc2ccc(Cl)cc2)n1` ; retrieve measured growth inhibition. 31.6

Param item = `C1=C(c2ccccc2)N(c2ccccc2)N=C(c2ccccc2)C1` ; retrieve measured growth inhibition. 6

Param item = CC1N=C(c2ccccc2)SC1C (configuration not stated) ; retrieve measured growth inhibition. -24.9

Param item = CC(=O)C1(C(C)=O)OC2c3ccccc3C=CN2C=C1C=O (configuration not stated) ; retrieve measured growth inhibition. 14.6

Param item = COc1c(CC=C(C)C)c(O)c(C(CC(C)C)c2c(O)c(CC=C(C)C)c(O)c(C(C)=O)c2O)c(O)c1C(C)=O (configuration not stated) ; retrieve measured growth inhibition. 34

Param item = `CC(C)/C(=N\[N+](C)(C)C)c1ccccc1` ; retrieve measured growth inhibition. -21.8

Param item = COc1ccc(C(NC(N)=O)c2cc3c(cc2OC(C)=O)OCO3)c(OC)c1 (configuration not stated) ; retrieve measured growth inhibition. -2.45

Param item = `CCCCCCOc1ccc(OCCCC[N+]2(CC)CCCCC2)cc1` ; retrieve measured growth inhibition. 73.7

Param item = `COC(=O)CCC(=O)CC(=O)C(=O)Nc1c(Cl)cc([N+](=O)[O-])cc1Cl` ; retrieve measured growth inhibition. 0.5

Param item = CC(C(=O)O)c1ccc(-n2nnc3c(=O)[nH][nH]c(=O)c32)cc1 (configuration not stated) ; retrieve measured growth inhibition. -12.6

Param item = `O=C(Oc1ccc(C(=O)c2ccccc2)cc1)C(Cl)=C(Cl)Cl` ; retrieve measured growth inhibition. 7.7

Param item = `O=C(/C=C(\Br)c1ccccc1)c1ccccc1` ; retrieve measured growth inhibition. 99.8

Param item = `Cc1ccc(S/C=C/C(=O)Nc2ccccc2)cc1` ; retrieve measured growth inhibition. 7.1

Param item = `S=C(NCc1ccc(Cl)c(Cl)c1)Nc1ccccc1` ; retrieve measured growth inhibition. 99

Param item = Cc1ccc(C)c(NC(=O)C2C(=O)C(=O)N(c3cc(C)ccc3C)C2=O)c1 (configuration not stated) ; retrieve measured growth inhibition. -18.5

Param item = NC(CO)CSCc1ccccc1 (configuration not stated) ; retrieve measured growth inhibition. 11.6

Param item = CC1(C)CC23C(=O)N(c4ccccc4)C(=Nc4ccccc4)NC2=CC(C#N)=C(C#N)C3O1 (configuration not stated) ; retrieve measured growth inhibition. 5.3

Param item = `Oc1c(Br)cc(CN(Cc2cc(Br)c(O)c(Br)c2)C2CCCCC2)cc1Br` ; retrieve measured growth inhibition. -21.3

Param item = CC(C)(C)OC(=O)NC(CSCc1ccc(C(=O)c2ccccc2)cc1)C(=O)O (configuration not stated) ; retrieve measured growth inhibition. -15.3

Param item = `COc1cccc(C(=O)O)c1Cc1cccc2ccccc12` ; retrieve measured growth inhibition. 10.3

Param item = `COc1ccc(Nc2nc3c([nH]2)c(=O)n(C)c(=O)n3C)cc1` ; retrieve measured growth inhibition. -11.3

Param item = `COc1ccc2[nH]c(Br)c(CCNC(C)=O)c2c1` ; retrieve measured growth inhibition. -16.9

Param item = `CC(=O)c1cc2c(Br)cccc2oc1=O` ; retrieve measured growth inhibition. -32.5

Param item = `O=c1ccc2c(O)c([N+](=O)[O-])cc([N+](=O)[O-])c2[nH]1` ; retrieve measured growth inhibition. 3.15

Param item = FC(F)(F)c1cccc(C2SCc3nc4ccccc4n32)c1 (configuration not stated) ; retrieve measured growth inhibition. 7.1

Param item = COc1cc2cc3c4ccc(OC)c(OC)c4cc[n+]3c(C)c2cc1OC (tested in a mixture with another compound) ; retrieve measured growth inhibition. 98.8

Param item = O=C1NNC2NC(=O)C3(NN2C1=O)c1ccccc1-c1ccccc13 (configuration not stated) ; retrieve measured growth inhibition. 0.45

Param item = COP(=O)(OC)C1c2cc(Cl)ccc2-c2c(Cl)cc(Cl)cc21 (configuration not stated) ; retrieve measured growth inhibition. 83.7

Param item = `Nc1ccc(C(=O)O)cc1O` ; retrieve measured growth inhibition. 13.9

Param item = `CC(C)(NC(=O)c1ccccc1)NC(=O)c1ccccc1` ; retrieve measured growth inhibition. -5.8

Param item = `c1ccc(Cn2c(-c3ccccc3)c[n+]3ccccc23)cc1` ; retrieve measured growth inhibition. 5.35

Param item = COC(C)CCOC(=O)c1ccc(C(C)C)cc1 (configuration not stated) ; retrieve measured growth inhibition. 10.2

Param item = `ClC(Cl)C1OCCOCCO1` ; retrieve measured growth inhibition. -9.9

Param item = COc1ccc(NC(=O)C2C(=O)N(c3ccc(OC)cc3)C(=O)/C2=N\NC(N)=O)cc1 (configuration not stated) ; retrieve measured growth inhibition. -48

Param item = `C/C(=C\Cc1cc(O)c(C)cc1O)CC/C=C(\C)Cc1cc(C)co1` ; retrieve measured growth inhibition. -35.5

Param item = `CCOc1ccc(N=Cc2cc(Br)ccc2O)cc1` ; retrieve measured growth inhibition. 1.5

* * *

ASSAY_REMARKS: NCI Yeast Anticancer Drug Screen. Data for the mec2-1 strain (AID 157)
REPORTED_CONDITIONS: S. cerevisiae mec2-1 strain, at 50.0 µM, stronger effect = higher value
The panel holds about 79,000 compounds, 15% with a hit somewhere; the sample as a whole holds those more often.
READOUT_NAME: growth inhibition (%)
Respond with the bare value in %.

Param item = `Cc1ccc(OCCNCCO)cc1` ; retrieve measured growth inhibition. -11.4

Param item = COC(=O)C1Cc2ccc(C)cc2C1=O (stereo unspecified) ; retrieve measured growth inhibition. -4.6

Param item = `CCOC(=O)N/C=C/C(C)=O` ; retrieve measured growth inhibition. -14.2

Param item = `c1ccc(N=C2NNC(=Nc3ccccc3)NN2)cc1` ; retrieve measured growth inhibition. 2.2

Param item = `O=P(O)(O)c1ccccc1Oc1ccccc1` ; retrieve measured growth inhibition. 7.55

Param item = CC1CCC(OC(=O)CC#N)CC1 (stereo unspecified) ; retrieve measured growth inhibition. -7.2

Param item = `O=C1c2c(Cl)cccc2C(c2ccccc2)c2cccc(Cl)c21` ; retrieve measured growth inhibition. -4.15

Param item = `NS(=O)(=O)c1ccc(NC(=S)/N=C/c2c(O)c3ccccc3oc2=O)cc1` ; retrieve measured growth inhibition. -4.45

Param item = `CC(=O)N/C(=C\c1ccc(Cc2nc3c([nH]2)C(=O)c2ccccc2C3=O)cc1)c1nc2c([nH]1)C(=O)c1ccccc1C2=O` ; retrieve measured growth inhibition. 12.4

Param item = `O=C(O)Cc1ccc2c(c1)C(=O)C(=O)N2` ; retrieve measured growth inhibition. 18.6

Param item = `CCOc1ccc(CO)cc1` ; retrieve measured growth inhibition. 0.2

Param item = `C=C(C)CBr` ; retrieve measured growth inhibition. -7.55

Param item = `Cc1cc2c(cc1C)C(=O)c1ccccc1C2=O` ; retrieve measured growth inhibition. -36.1

Param item = `COc1cccc2ccc(C(=O)c3ccccc3)nc12` ; retrieve measured growth inhibition. -3.2

Param item = `CC(C)=CCC(C)C` ; retrieve measured growth inhibition. 3.85

Param item = CC1(C)OC2(C)CCC1C1C2N1C(=O)Nc1cccc(Cl)c1 (stereo unspecified) ; retrieve measured growth inhibition. -13.8

Param item = O=C(O)C(O)c1ccc(Cl)c(Cl)c1 (stereo unspecified) ; retrieve measured growth inhibition. -24.3

Param item = `c1cc(C2CCCCC2)ccc1C1CCCCC1` ; retrieve measured growth inhibition. -19.1

Param item = `Nc1ccc(N=Nc2ccc(C(=O)O)cc2)cc1` ; retrieve measured growth inhibition. -48

Param item = `COc1cc(O)c(C(=O)CC(C)=O)c(OC)c1` ; retrieve measured growth inhibition. -14.8

Param item = `O=c1cc(CC(O)(c2ccccc2)c2ccccc2)cc[nH]1` ; retrieve measured growth inhibition. 3.8

Param item = `COC(=O)C(Cc1ccc2c(c1)CCC2)Cc1ccc2c(c1)CCC2` ; retrieve measured growth inhibition. -16.4

Param item = `COc1ccc(OC)c2c(NCCNCCO)cc(NCCNCCO)nc12` ; retrieve measured growth inhibition. -4.75

Param item = CC(OS(C)(=O)=O)C(C)OS(C)(=O)=O (stereo unspecified) ; retrieve measured growth inhibition. -9.35

Param item = O=C(OCCN1CCOCC1)C1C[C@@H](O)CN1C(=O)c1ccc2c(c1)OCO2 (stereo partly specified) ; retrieve measured growth inhibition. -5.85

Param item = `CN(C)c1ccc(/C=N/NC(=O)c2ccccc2NC(=O)c2ccc(Cl)cc2)c(Cl)c1` ; retrieve measured growth inhibition. 0.45

Param item = `O=C1C=C(Nc2ccc(Br)cc2)c2ccccc2C1=O` ; retrieve measured growth inhibition. -1.95

Param item = `Cc1cc2c(cc1C=O)C(C)(C)CCC2` ; retrieve measured growth inhibition. 0.85

Param item = Cc1cc(C)c2c(c1)Nc1ccccc1P2c1ccccc1 (stereo unspecified) ; retrieve measured growth inhibition. 14.2

Param item = CCOC(=O)C1=NNCC1c1cccc(Cl)c1 (stereo unspecified) ; retrieve measured growth inhibition. -7.5

Param item = `COc1cc(/C=N/NC(=O)C(=O)N/N=C/c2cc(OC)c(OC)c(OC)c2)cc(OC)c1OC` ; retrieve measured growth inhibition. -34.1

Param item = `O=C(O)c1ccc(O)c(Cl)c1` ; retrieve measured growth inhibition. 5.8

Param item = `O=C(CCCCC(=O)Oc1ccc([N+](=O)[O-])cc1)Oc1ccc([N+](=O)[O-])cc1` ; retrieve measured growth inhibition. 3.25

Param item = `NNC(=O)C1=NN(c2ccccc2)C(=O)C1` ; retrieve measured growth inhibition. 12.8

Param item = CCOC(=O)C1CCC(=O)N1Cc1c[nH]c2ccccc12 (stereo unspecified) ; retrieve measured growth inhibition. -12.7

Param item = `N#CCCN(CCC#N)c1ccc(/C=C2\N=C(c3cc([N+](=O)[O-])ccc3Cl)N(S(=O)(=O)c3ccccc3)C2=O)cc1` ; retrieve measured growth inhibition. 16.3

Param item = O=C(O)CCC(NC(=O)CCC(NC(=O)OCc1ccccc1)C(=O)OCc1ccccc1)C(=O)OCc1ccccc1 (stereo unspecified) ; retrieve measured growth inhibition. -31.5

Param item = `COC(=O)c1cc2ccccc2[nH]1` ; retrieve measured growth inhibition. 8

Param item = `O=S(=O)(O)c1cc(O)c2ccc3c(S(=O)(=O)O)cc(S(=O)(=O)O)c4ccc1c2c34` ; retrieve measured growth inhibition. -23.1

Param item = `O=C1OC(c2ccccc2)=N/C1=C/c1c(-c2ccccc2)c(-c2ccccc2)c2n1CCC2` ; retrieve measured growth inhibition. 9.75

Param item = `Cc1cccc2nnc(CCCc3nnc4cccc(C)n34)n12` ; retrieve measured growth inhibition. 1.85
